The following compounds are shown together with reported EOSINOPHIL values.
- Species on record: Rattus norvegicus
- Experiment Notes: DrugMatrix - Regimen: Daily Repeat
- Assay type: toxicity, organism-based, Sprague-Dawley
- Set-up: regimen Daily Repeat, gender Male, age 6-8 weeks
- Conditions: in vivo, po, 0 mg/kg, 72 h, tissue Blood, route oral GAVAGE, dose level Control, time 3 day, vehicle .5 % CMC
Provide only the numeric value, understood in %.

- CC(C)NCC(O)COc1ccc(CC(N)=O)cc1 (stereo unspecified): 0.33
- COc1cc(/C=C/C(=O)O)ccc1O [FERULATE]: 1.67
- Cc1cc2c(s1)Nc1ccccc1N=C2N1CCN(C)CC1: 0.33

Query: Recorded EOSINOPHIL of Cl.NC[C@H]1CC[C@H](C(=O)Oc2ccc(CCC(=O)O)cc2)CC1 [CETRAXATE HYDROCHLORIDE] , please.
Result: 1.67

Query: // repeat for `NC(=O)CN1CCCC1=O` and report
Result: 0

Query: // repeat for `CC(C)Cc1ccc([C@H](C)C(=O)O)cc1` and report
Result: 0.98

====

The following compounds are shown together with reported SODIUM values.
- Organism: Rattus norvegicus
- Experiment Notes: DrugMatrix - Regimen: Daily Repeat
- Type: toxicity, organism-based, Sprague-Dawley
- Parameters: regimen Daily Repeat, gender Male, age 6-8 weeks
- Conditions: in vivo, po, 1500 mg/kg, 120 h, tissue Plasma, route oral GAVAGE, dose level High, time 5 day, vehicle .5 % CMC
Provide only the numeric value, understood in MEQ/L.

- CC[C@H]1OC(=O)[C@H](C)[C@@H](O[C@H]2C[C@@](C)(OC)[C@@H](O)[C@H](C)O2)[C@H](C)[C@@H](O[C@@H]2O[C@H](C)C[C@H](N(C)C)[C@H]2O)[C@](C)(O)C[C@@H](C)C(=O)[C@H](C)[C@@H](O)[C@]1(C)O: 141.8
- O=C(O)CCc1nc(-c2ccccc2)c(-c2ccccc2)o1: 143.63
- COc1cc(/C=C/C(=O)O)ccc1O [FERULATE]: 146.6
- COc1ccc(Cl)cc1C(=O)NCCc1ccc(S(=O)(=O)NC(=O)NC2CCCCC2)cc1 [GLYBURIDE]: 145.33

# input for lookup
Query: Recorded SODIUM of Cc1ccc(S(=O)(=O)NC(=O)NN2CCCCCC2)cc1 [TOLAZAMIDE] , please.
Result: 149.93

====

- Species on record: Rattus norvegicus
- Experiment Notes: DrugMatrix - Regimen: Daily Repeat
- Type: toxicity, organism-based, Sprague-Dawley
- Design: regimen Daily Repeat, gender Male, age 6-8 weeks
- Conditions: in vivo, po, 0 mg/kg, 72 h, tissue Plasma, route oral GAVAGE, dose level Control, time 3 day, vehicle .5 % CMC
The following molecules are shown together with reported PHOSPHORUS values.
Provide only the numeric value, understood in mg/dL.

Worked cases, PHOSPHORUS given:
• NCC(CC(=O)O)c1ccc(Cl)cc1 (centres undefined) [BACLOFEN] = 11.23
• NC(=O)NC(=O)Cc1ccccc1 [PHENACEMIDE] = 12.07
• CC(C)Cc1ccc([C@H](C)C(=O)O)cc1 [DEXIBUPROFEN] = 11.23
• O=C(O)CCc1nc(-c2ccccc2)c(-c2ccccc2)o1 [OXAPROZIN] = 11.67
• CCN1C[C@]2(COC)[C@H](O)C[C@H](OC)[C@@]34[C@@H]5C[C@@]6(O)[C@H](OC(=O)c7ccccc7)[C@@H]5[C@@](OC(C)=O)([C@@H]([C@H](OC)[C@H]23)[C@@H]14)[C@@H](O)[C@@H]6OC [ACONITINE] = 11.43

# input for lookup
Query: Recorded PHOSPHORUS of CCOc1cc(N)c(Cl)cc1C(=O)NCC1CN(Cc2ccc(F)cc2)CCO1 (centres undefined) [MOSAPRIDE] , please.
Result: 11.23

====

- Organism: Rattus norvegicus
- Experiment Notes: DrugMatrix - Regimen: Daily Repeat
- Assay type: toxicity, organism-based, Sprague-Dawley
- Set-up: regimen Daily Repeat, gender Male, age 6-8 weeks
- Conditions: in vivo, po, 0 mg/kg, 72 h, tissue Blood, route oral GAVAGE, dose level Control, time 3 day, vehicle .5 % CMC
Measured Parameter: PLATELET COUNT (x10E3/uL)
Provide only the numeric value, understood in x10E3/uL.

• CN(C)CCOC(c1ccccc1)c1ccccc1.Cn1c(=O)c2[nH]c(Cl)nc2n(C)c1=O [DIMENHYDRINATE] = 1188.5
• NC(=O)CN1CCCC1=O = 1118.17
• CCN1CCN(c2cc3c(cc2F)c(=O)c(C(=O)O)cn3C2CC2)CC1 = 1386
• O=C(O)CCc1nc(-c2ccccc2)c(-c2ccccc2)o1 = 1250.83
• COc1cc(NC(C)CCCN)c2ncccc2c1 (configuration not stated) = 1068.8

Query: Recorded PLATELET COUNT of Cl.NC[C@H]1CC[C@H](C(=O)Oc2ccc(CCC(=O)O)cc2)CC1 [CETRAXATE HYDROCHLORIDE] , please.
Result: 1184.67

====

- Species on record: Rattus norvegicus
- Experiment Notes: DrugMatrix - Regimen: Daily Repeat
- Assay type: toxicity, organism-based, Sprague-Dawley
- Set-up: regimen Daily Repeat, gender Male, age 6-8 weeks
- Conditions: in vivo, po, 1500 mg/kg, 72 h, tissue Plasma, route oral GAVAGE, dose level High, time 3 day, vehicle .5 % CMC
The following compounds are shown together with reported GLUCOSE values.
Provide only the numeric value, understood in mg/dL.

Worked cases, GLUCOSE given:
* CC[C@H]1OC(=O)[C@H](C)[C@@H](O[C@H]2C[C@@](C)(OC)[C@@H](O)[C@H](C)O2)[C@H](C)[C@@H](O[C@@H]2O[C@H](C)C[C@H](N(C)C)[C@H]2O)[C@](C)(O)C[C@@H](C)C(=O)[C@H](C)[C@@H](O)[C@]1(C)O | 137.67
* COc1ccc(Cl)cc1C(=O)NCCc1ccc(S(=O)(=O)NC(=O)NC2CCCCC2)cc1 [GLYBURIDE] | 122.67
* COc1cc(/C=C/C(=O)O)ccc1O [FERULATE] | 140.67

Query: Recorded GLUCOSE of Cc1ccc(S(=O)(=O)NC(=O)NN2CCCCCC2)cc1 [TOLAZAMIDE] , please.
Result: 142

Query: // repeat for `O=C(O)CCc1nc(-c2ccccc2)c(-c2ccccc2)o1` and report
Result: 118

====

- Species on record: Rattus norvegicus
- Experiment Notes: DrugMatrix - Regimen: Daily Repeat
- Assay type: toxicity, organism-based, Sprague-Dawley
- Parameters: regimen Daily Repeat, gender Male, age 6-8 weeks
- Conditions: in vivo, po, 1500 mg/kg, 120 h, tissue Blood, route oral GAVAGE, dose level High, time 5 day, vehicle .5 % CMC
Measured Parameter: EOSINOPHIL (%)
Provide only the numeric value, understood in %.

- Cc1ccc(S(=O)(=O)NC(=O)NN2CCCCCC2)cc1 [TOLAZAMIDE]: 0.33

# input for lookup
Query: Recorded EOSINOPHIL of CC[C@H]1OC(=O)[C@H](C)[C@@H](O[C@H]2C[C@@](C)(OC)[C@@H](O)[C@H](C)O2)[C@H](C)[C@@H](O[C@@H]2O[C@H](C)C[C@H](N(C)C)[C@H]2O)[C@](C)(O)C[C@@H](C)C(=O)[C@H](C)[C@@H](O)[C@]1(C)O [ERYTHROMYCIN] , please.
Result: 0

====

- Organism: Rattus norvegicus
- Experiment Notes: DrugMatrix - Regimen: Daily Repeat
- Format: toxicity, organism-based, Sprague-Dawley
- Set-up: regimen Daily Repeat, gender Male, age 6-8 weeks
- Conditions: in vivo, po, 0 mg/kg, 120 h, tissue Plasma, route oral GAVAGE, dose level Control, time 5 day, vehicle .5 % CMC
The following compounds are shown together with reported POTASSIUM values.
Provide only the numeric value, understood in MEQ/L.

Worked cases, POTASSIUM given:
• CCN(CC)CCNC(=O)c1cc(Cl)c(N)cc1OC [METOCLOPRAMIDE] = 6.7
• NC(=O)CN1CCCC1=O = 5.63
• Cl.NC[C@H]1CC[C@H](C(=O)Oc2ccc(CCC(=O)O)cc2)CC1 [CETRAXATE HYDROCHLORIDE] = 6.49
• CC(C)(C#N)c1cc(Cn2cncn2)cc(C(C)(C)C#N)c1 = 7.03
• COc1ccc(Cl)cc1C(=O)NCCc1ccc(S(=O)(=O)NC(=O)NC2CCCCC2)cc1 [GLYBURIDE] = 6.27

Query: Recorded POTASSIUM of CCN1CCCC1CNC(=O)c1cc(S(N)(=O)=O)ccc1OC (stereo not given) [SULPIRIDE] , please.
Result: 7.08

Query: // repeat for CC(C)NCC(O)COc1ccc(CC(N)=O)cc1 (stereo not given) and report
Result: 6.68

Query: // repeat for `CC(=O)Nc1ccc2c(c1)Cc1ccccc1-2` and report
Result: 6.57

Query: // repeat for `Nc1ccc(C(=O)O)c(O)c1` and report
Result: 6.27

Query: // repeat for CCOc1cc(N)c(Cl)cc1C(=O)NCC1CN(Cc2ccc(F)cc2)CCO1 (stereo not given) [MOSAPRIDE] and report
Result: 6.57
